- ASSAYED TARGET: Luciferin 4-monooxygenase (Photinus pyralis) (UniProt P08659)
- Sequence (P08659 whole entry, looked up): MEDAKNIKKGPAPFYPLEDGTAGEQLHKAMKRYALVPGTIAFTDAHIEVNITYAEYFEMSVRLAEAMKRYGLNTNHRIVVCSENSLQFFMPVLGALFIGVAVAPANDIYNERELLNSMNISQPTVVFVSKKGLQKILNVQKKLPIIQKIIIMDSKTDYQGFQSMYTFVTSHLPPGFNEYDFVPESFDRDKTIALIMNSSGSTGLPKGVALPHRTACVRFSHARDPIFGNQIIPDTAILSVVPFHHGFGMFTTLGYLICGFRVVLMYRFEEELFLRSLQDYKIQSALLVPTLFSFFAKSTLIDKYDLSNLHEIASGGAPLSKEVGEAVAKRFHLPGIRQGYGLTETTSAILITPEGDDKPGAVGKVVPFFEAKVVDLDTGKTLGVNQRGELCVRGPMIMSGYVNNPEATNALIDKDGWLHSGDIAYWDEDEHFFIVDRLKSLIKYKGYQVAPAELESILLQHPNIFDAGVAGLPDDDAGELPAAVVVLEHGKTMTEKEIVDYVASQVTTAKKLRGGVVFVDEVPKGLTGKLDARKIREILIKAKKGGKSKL
- ASSAY SUMMARY: inhibition of purified Photinus pyralis luciferase – biochemical, luminescence, purified enzyme, 2006 set, primary screen (AID 1141);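 further: cell-free assay with purified firefly luciferase at 100 ng per well in PBS; test concentration not given here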
- STUDY CONDITIONS: purified firefly luciferase, SteadyGlo luminescence, 30 min; higher = more signal, called active from +8 up or from −8 down
READOUT TYPE: z-score
Please give only the number in your answer, with no unit.

- O=C1OCCC=C[C@H]2OC34C=CCN(CCN5CCOCC5)C(=O)[C@H]3N(CCCCCO)C(=O)[C@@H]4C12 (stereo partly drawn): -0.956

Supply measured z-score of `COc1ccc(C#Cc2ccc3c(c2)[C@]2(C(=O)N3)[C@H](c3ccc(O)cc3)N3[C@H](c4ccccc4)[C@H](c4ccccc4)OC(=O)[C@H]3[C@@H]2C(=O)N2CCc3cc(OC)c(OC)cc3C2)cc1` in your reply.
-0.798

Check the records and state z-score for `CO[C@H]1O[C@H](CO)[C@@H](OC(=O)Nc2ccc(Br)cc2)[C@@H]2OC(=O)[C@H](Cc3cccc(Br)c3)C/C=C/C[C@@H](Cc3cccc(Br)c3)C(=O)O[C@@H]12`
0.671

Hello, please tell me recorded z-score for this one: `CCCCCCc1nc(-c2ccc(-c3ccc(Cl)c(Cl)c3)o2)c(C)c2c1[Si](C(C)C)(C(C)C)OC2`
-2.67

Note down z-score recorded for `COc1ccc([Si](C)(C)[C@@H]2[C@@H](CCn3cc(CCO)nn3)O[C@]3(C(=O)N(Cc4cccc(N5C(=O)c6cccc7cccc5c67)c4)c4ccccc43)[C@H]2C)cc1`
0.178

Look up z-score of `CCOC(=O)C[C@H]1[C@H](OC(=O)c2ccc(-c3ccccc3)cc2)[C@@H](NC(=O)c2ccccc2)c2cc(OCCCO)ccc2N1C(=O)c1ccc2ccccc2n1` and report it.
0.0119

Supply reported z-score belonging to this compound: O=C1OCCC=C[C@H]2OC34C=CCN(Cn5nnc6ccccc65)C(=O)[C@H]3N(CCO)C(=O)[C@@H]4C12 (stereo partly drawn)
0.612

Specify measured z-score for `COCCOC(=O)N1C(=O)[C@@]2(c3ccccc31)[C@H](C(=O)N1CCc3cc(OC)c(OC)cc3C1)[C@H]1C(=O)O[C@H](c3ccccc3)[C@H](c3ccccc3)N1[C@@H]2c1ccc(O)cc1` .
-5.57

Tell us which z-score value is on record for `O=C1O[C@H](c2ccccc2)[C@H](c2ccccc2)N2[C@H]1[C@@H](C(=O)NC[C@H](O)c1ccccc1)[C@]1(C(=O)Nc3ccccc31)[C@H]2c1ccc(O)cc1`
0.363

Please report z-score for the following compound: CC1CC/C=C\[C@H]2OC34C=CCN(Cn5nnc6ccccc65)C(=O)[C@H]3N(CCCCCO)C(=O)[C@@H]4C2C(=O)O1 (stereo partly drawn)
0.932

Please give the documented z-score of `COC(=O)c1c2oc(c1C(=O)OC)C(=O)N[C@@H](C(C)C)Cn1cc(nn1)C1(CCCCC1)NC(=O)N[C@H](CO)CC2`
-1.3

Hello, please tell me recorded z-score for this one: `COCC(=C=CC[C@H](O)c1ccccc1OCCO)CCO`
0.109

Report z-score for `COCCOC(=O)N1C(=O)[C@@]2(c3cc(C#CCCO)ccc31)[C@H](c1ccc(OCCO)cc1)N1[C@H](c3ccccc3)[C@H](c3ccccc3)OC(=O)[C@H]1[C@@H]2C(N)=O`
-1.77
